Each recorded value in this set is attributed to patent US6927221B2.

# MEASUREMENT TARGET: UniProtKB P34998
# Sequence (P34998 24-415): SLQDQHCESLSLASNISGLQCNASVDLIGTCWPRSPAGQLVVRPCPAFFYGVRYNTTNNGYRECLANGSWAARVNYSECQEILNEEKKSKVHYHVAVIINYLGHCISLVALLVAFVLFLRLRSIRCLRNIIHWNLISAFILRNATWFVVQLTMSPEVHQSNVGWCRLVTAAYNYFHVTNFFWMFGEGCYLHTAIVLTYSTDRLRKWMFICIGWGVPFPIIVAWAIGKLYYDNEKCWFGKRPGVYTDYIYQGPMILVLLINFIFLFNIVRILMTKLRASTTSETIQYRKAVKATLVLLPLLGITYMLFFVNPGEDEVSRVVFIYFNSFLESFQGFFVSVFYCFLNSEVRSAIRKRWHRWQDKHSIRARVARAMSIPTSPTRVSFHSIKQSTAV
Counter-ions that a name gives are not always drawn.
The label True is reserved for IC50 strictly under 500 nM; False covers values equal to or above it.

compound="CCC(CC)N1c2c(c(C)nc3c(-c4c(C)cc(C)cc4C)c(C)nn23)CC1C (centres unmarked)" measurement_target="UniProtKB P34998" classification=False
compound="CCCC(CCC)N1CCc2c(C)nc3c(-c4c(C)cc(C)cc4C)c(C)nn3c21 [Example 6, hydrochloride]" measurement_target="UniProtKB P34998" classification=False
compound="COCCN1c2c(c(C)nc3c(-c4c(C)cc(C)cc4C)c(C)nn23)CC1C (centres unmarked) [Example 44, hydrochloride]" measurement_target="UniProtKB P34998" classification=True
compound="CCCC(CCC)N1CCc2c(C)nc3c(-c4cnc(N(C)C)cc4C)c(C)nn3c21 [Example 3, hydrochloride]" measurement_target="UniProtKB P34998" classification=False
compound="CCC(CC)N1CCc2c(C)nc3c(-c4ccc(Cl)cc4Cl)c(C)nn3c21 [Example 33, hydrochloride]" measurement_target="UniProtKB P34998" classification=False
compound="Cc1cc(C)c(-c2c(C)nn3c4c(c(C)nc23)CCN4CC2CC2)c(C)c1 [Example 38, hydrochloride]" measurement_target="UniProtKB P34998" classification=False
compound="Cc1cc(C)c(-c2c(C)nn3c4c(c(C)nc23)CCN4C2CCCCCC2)c(C)c1 [Example 45, hydrochloride]" measurement_target="UniProtKB P34998" classification=False
compound=CCC(CC)N1CCCc2c(C)nc3c(-c4c(C)cc(C)cc4C)c(C)nn3c21 measurement_target="UniProtKB P34998" classification=False
compound="CCC(CC)N1CCc2c(C)nc3c(-c4c(C)cc(C)cc4C)c(C)nn3c21 [Example 1, hydrochloride]" measurement_target="UniProtKB P34998" classification=True
compound=CCC(CC)n1ccc2c(C)nc3c(-c4c(C)cc(C)cc4C)c(C)nn3c21 measurement_target="UniProtKB P34998" classification=True
